Source of measurements: patent US7118895B2

System: Crude diglycosidase
protocol_notes: Examination of temperature in the conversion into isoflavone aglycons by diglycosidase using soybean materials
Type: biochemical, Penicillium multicolor IAM7153
Set-up: concentration or dose not given beside the values
measurement_setup: 30 °C; heat treatment of enzyme: no; 0 h
Below: a set of entries, each annotated with reported Decomposition efficiency of daidzin family in soymilk.
The reply should be a number in %, with the unit left off.

O=c1c(-c2ccc(O)cc2)coc2cc(O)ccc12    9.1
O=C(O)CC(=O)OC[C@H]1O[C@@H](Oc2ccc3c(=O)c(-c4ccc(O)cc4)coc3c2)[C@H](O)[C@@H](O)[C@@H]1O    56.8

The molecule listed as O=c1c(-c2ccc(O)cc2)coc2cc(O[C@@H]3O[C@H](CO)[C@@H](O)[C@H](O)[C@H]3O)ccc12 has a reported Decomposition efficiency of daidzin family in soymilk of 34.1
